Item-by-item account of pIC50
target: FIH (Homo sapiens, UniProt Q9NWT6)
Sequence (Q9NWT6 whole entry): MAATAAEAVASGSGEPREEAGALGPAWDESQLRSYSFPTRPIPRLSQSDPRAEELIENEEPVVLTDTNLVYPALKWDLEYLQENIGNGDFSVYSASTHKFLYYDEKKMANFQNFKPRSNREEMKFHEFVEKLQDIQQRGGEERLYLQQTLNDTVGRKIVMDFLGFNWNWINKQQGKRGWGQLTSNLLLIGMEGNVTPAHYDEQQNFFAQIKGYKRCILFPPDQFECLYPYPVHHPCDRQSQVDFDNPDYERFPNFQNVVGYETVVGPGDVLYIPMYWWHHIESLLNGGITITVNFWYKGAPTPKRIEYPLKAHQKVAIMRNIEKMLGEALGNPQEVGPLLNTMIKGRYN
Conceptually, pIC50 converts a concentration in mol/L into minus its log10.

compound | pIC50
O=C(O)c1ccnc2c(O)cccc12 [4C8HQ, 4-carboxy-8-hydroxyquinoline] | 5.12

Please find the next compound below.
Give recorded pIC50 with FIH (Homo sapiens, UniProt Q9NWT6) for the following compound: O=C(O)c1ccc(O)c2ncccc12 [IOX1, 5-carboxy-8-hydroxyquinoline]
5.12

* * *

Target: KDM4A (Homo sapiens)
Sequence (O75164 1-1064): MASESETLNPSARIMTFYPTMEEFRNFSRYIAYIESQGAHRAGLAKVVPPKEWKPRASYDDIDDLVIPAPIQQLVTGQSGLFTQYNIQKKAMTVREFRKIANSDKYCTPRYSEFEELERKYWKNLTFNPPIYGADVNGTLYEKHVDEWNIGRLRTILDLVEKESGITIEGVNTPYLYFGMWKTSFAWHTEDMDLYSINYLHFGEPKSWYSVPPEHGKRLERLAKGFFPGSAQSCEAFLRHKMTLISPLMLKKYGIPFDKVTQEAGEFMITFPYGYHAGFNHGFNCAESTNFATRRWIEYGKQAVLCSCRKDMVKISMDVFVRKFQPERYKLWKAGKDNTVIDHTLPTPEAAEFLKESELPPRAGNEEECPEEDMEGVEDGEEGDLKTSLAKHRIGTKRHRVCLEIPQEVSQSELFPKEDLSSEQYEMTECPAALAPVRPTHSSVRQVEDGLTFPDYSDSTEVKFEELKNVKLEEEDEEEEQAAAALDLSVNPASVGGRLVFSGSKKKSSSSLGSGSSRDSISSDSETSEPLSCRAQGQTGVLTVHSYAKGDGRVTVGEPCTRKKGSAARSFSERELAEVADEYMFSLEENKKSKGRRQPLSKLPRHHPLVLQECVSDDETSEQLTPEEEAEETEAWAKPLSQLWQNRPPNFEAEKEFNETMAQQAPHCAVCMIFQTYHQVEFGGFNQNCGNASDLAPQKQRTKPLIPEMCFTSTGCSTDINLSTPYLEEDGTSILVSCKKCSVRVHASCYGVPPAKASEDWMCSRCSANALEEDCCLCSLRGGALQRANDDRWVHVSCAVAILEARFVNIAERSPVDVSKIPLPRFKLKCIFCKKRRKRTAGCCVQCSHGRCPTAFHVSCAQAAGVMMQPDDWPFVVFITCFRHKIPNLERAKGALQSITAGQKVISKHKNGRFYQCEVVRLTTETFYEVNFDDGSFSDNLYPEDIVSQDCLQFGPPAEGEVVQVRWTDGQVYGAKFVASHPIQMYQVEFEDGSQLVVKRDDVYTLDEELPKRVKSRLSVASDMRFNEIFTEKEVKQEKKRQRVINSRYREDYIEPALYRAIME
Assay: immunofluorescence of global methylation in HeLa cells overexpressing KDM4A
Assay type: cell-based
Details: HeLa cells overexpressing KDM4A, immunofluorescence
metric: pEC50
Conceptually, pEC50 converts a concentration in mol/L into minus its log10.

I'd like to know its pEC50. The molecule in question is `COC(=O)CNC(=O)C(=O)OC`
2.46
